Collected O.D. 490/630 at 0.0625 µg/mL values appear next to each entry.
measured target: T1, full-length recombinant human PAD4 (human, UniProt Q9UM07 1-663)
T1 construct: Full-length recombinant; also called peptidylarginine deiminase 4
T1 sequence (Q9UM07 whole entry): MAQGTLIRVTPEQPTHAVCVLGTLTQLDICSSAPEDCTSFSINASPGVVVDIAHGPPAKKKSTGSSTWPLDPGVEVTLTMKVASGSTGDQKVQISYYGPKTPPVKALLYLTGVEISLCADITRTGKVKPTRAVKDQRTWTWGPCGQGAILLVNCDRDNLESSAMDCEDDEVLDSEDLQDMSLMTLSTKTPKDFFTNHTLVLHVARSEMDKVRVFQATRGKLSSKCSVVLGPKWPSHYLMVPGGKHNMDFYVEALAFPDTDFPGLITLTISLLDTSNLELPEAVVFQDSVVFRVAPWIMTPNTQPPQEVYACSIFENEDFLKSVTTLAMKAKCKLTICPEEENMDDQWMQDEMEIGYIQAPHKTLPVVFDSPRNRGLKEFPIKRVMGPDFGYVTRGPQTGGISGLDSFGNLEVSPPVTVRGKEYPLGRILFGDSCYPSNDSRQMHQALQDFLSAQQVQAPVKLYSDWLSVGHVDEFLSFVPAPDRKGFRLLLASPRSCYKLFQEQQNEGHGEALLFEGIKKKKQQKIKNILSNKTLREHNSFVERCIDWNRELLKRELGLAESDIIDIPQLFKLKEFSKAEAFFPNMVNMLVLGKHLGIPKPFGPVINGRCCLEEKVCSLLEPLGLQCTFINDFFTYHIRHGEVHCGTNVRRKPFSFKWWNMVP
assay info: ELISA, immobilized human PAD4
Give your answer as a number; write no unit.

binder	O.D. 490/630 at 0.0625 µg/mL
humanized anti-PAD4 antibody derived from G8, VH H4.15 / VL L4.06 (antibody, human IgG1, kappa, V domains shown, IgG1 kappa; also called G8 H4.15/L4.06) VH: EVQLLESGGGLVQPGGSLRLSCAASGFTFSTYAMGWVRQAPGKGLEFVSAIRNDGSWTGYGAAVKGRFTISRDNSKNTVYLQMNSLRAEDTAVYYCAKYTGSSGGSIGAWGQGTLVTVSS VL: SYELTQPPSVSVSPGQTARITCSGGNRNYYYGWYQQKPGQAPVTVIYANDKRPSGIPERFSGSYSGNTTTLTISGVQAEDEADYYCGTADTGKYVFGGGTKLTVLG	1.92
humanized anti-PAD4 antibody derived from G8, VH H4.15 / VL L4.00 (antibody, human IgG1, kappa, V domains shown, IgG1 kappa; also called G8 H4.15/L4.00) VH: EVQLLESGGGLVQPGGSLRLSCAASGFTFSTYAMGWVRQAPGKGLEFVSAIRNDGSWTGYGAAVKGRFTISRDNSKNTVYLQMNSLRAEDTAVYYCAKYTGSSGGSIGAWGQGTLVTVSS VL: SYELTQPPSVSVSPGQTARITCSGGNRNYYYGWYQQKPGQAPVLVIYANDKRPSGIPERFSGSSSGTTVTLTISGVQAEDEADYYCGTADTGKYVFGGGTKLTVLG	1.84

Please find the next binder below.
So what does the record say about O.D. 490/630 at 0.0625 µg/mL for humanized anti-PAD4 antibody derived from G8, VH H4.15 / VL L4.17 (antibody, human IgG1, kappa, V domains shown, IgG1 kappa; also called G8 H4.15/L4.17) VH: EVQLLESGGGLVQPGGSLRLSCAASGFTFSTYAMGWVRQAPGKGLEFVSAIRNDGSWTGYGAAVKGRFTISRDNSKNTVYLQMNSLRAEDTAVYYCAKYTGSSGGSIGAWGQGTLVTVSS VL: SYELTQPPSVSVSPGQTARITCSGGNRNYYYGWYQQKPGQAPVTVIYANDKRPSGIPERFSGSTSGNTTTLTISGVQAEDEADYYCGTADTGKYVFGGGTKLTVLG ?
1.93
